Cited source for all entries: patent US20250243286A1

Molecular target: T1, human ActRIIB (human, UniProt Q13705 19-137, limits assumed);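 note: solution equilibrium titration: antibodies held at fixed concentration, equilibrated overnight at 4 °C with serially diluted ActR2A or ActR2B, unbound antibody captured on antigen-coated plate, electrochemiluminescence readout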
T1 construct: antigen in MSD-SET; also called ACVR2B; ActR2B
T1 sequence: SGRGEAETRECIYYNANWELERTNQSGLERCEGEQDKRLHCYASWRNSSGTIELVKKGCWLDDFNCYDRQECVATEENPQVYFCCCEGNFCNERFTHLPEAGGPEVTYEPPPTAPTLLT
Assay: MSD-SET
Reported endpoint: Kd (pM)
Give the number; pM is assumed, so skip it.

- Antibody Rippla (antibody, V domains shown, full-length IgG; also called Ripp1a) VH: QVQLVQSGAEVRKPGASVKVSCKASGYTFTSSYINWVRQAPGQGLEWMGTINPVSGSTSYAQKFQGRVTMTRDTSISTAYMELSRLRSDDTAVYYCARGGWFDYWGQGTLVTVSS VL: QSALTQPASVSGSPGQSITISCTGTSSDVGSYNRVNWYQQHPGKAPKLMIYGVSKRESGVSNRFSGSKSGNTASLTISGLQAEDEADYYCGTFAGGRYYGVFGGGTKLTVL: 5
- Antibody Fasnetsküchla (antibody, V domains shown, full-length IgG) VH: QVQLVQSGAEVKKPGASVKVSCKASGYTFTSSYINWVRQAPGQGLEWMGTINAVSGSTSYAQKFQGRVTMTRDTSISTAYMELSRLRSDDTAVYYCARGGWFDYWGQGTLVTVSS VL: QSALTQPASVSGSPGQSITISCTGTSSDVGSANYVNWYQQHPGKAPKPMIYGVSRRPSGVSNRFSGSKSGNTASLTISGLQAEDEADYYCGTFAGGKYYGVFGGGTKLTVL: 8
- Antibody Biiramooscht (antibody, V domains shown, full-length IgG) VH: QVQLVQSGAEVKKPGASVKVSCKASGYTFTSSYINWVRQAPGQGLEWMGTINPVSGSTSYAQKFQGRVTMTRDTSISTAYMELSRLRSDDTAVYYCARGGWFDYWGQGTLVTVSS VL: QSALTQPASVSGSPGQSITISCTGTSSDVGSYNYVNWYQQHPGKAPKLMIYGVSKRESGVSNRFSGSKSGNTASLTISGLQAEDEADYYCGTFAGGAYYGVFGGGTKLTVL: 5
- Antibody Pfitzauf (antibody, V domains shown, full-length IgG) VH: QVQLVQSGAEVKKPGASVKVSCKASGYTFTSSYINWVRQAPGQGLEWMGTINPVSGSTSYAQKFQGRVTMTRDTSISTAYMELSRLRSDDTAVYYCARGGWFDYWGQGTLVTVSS VL: QSALTQPASVSGSPGQSITISCTGTSSDVGSGNYVNWYQQHPGKAPKLMIYGVSKRESGVSNRFSGSKSGNTASLTISGLQAEDEADYYCGTFAGGKYYGVFGGGTKLTVL: 8

Here's the next entry for you.
Exercise: What measured Kd goes with Antibody Dürrfloischeggla (antibody, V domains shown, full-length IgG) VH: QVQLVQSGAEVKKPGASVKVSCKASGYTFTSSYINWVRQAPGQGLEWMGTINAVSGSTSYAQKFQGRVTMTRDVSISTAYMELSRLRSDDTAVYYCARGGWFDYWGQGTLVTVSS VL: QSALTQPASVSGSPGQSITISCTGTSSDVGSYNVVNWYQQHPGKAPKLMISGVSKRESGVSNRFSGSKSGNTASLTISGLQAEDEADYYCGTFAGGKYYGVFGGGTKLTVL ?
Solution: 9
